System: SK-OV-3 ovarian
Assay: NCI-60 one-dose screen, 48 h (100 = growth as untreated, 0 = no growth, -100 = all killed)
Settings: 10 µM unless noted
The panel holds about 83,000 compounds, 20% with a hit somewhere; the sample as a whole holds those more often. Calls of active or inactive are those of the source. How the source made its calls: active means growth percent below 10; inactive means the rest.
# reported growth; entries follow

- Compound: "CC(=O)/C(=C/c1ccc(Cl)cc1)C(=O)c1ccccc1"
  growth: "101% (inactive)"
- Compound: "O=C(COc1cccc(/C=C2\\Oc3ccc4ccccc4c3C2=O)c1)c1ccc([N+](=O)[O-])cc1"
  growth: "88.9% (inactive)"
- Compound: "COc1ccc(/C=C2\\CCc3ccccc3C2=O)cc1"
  growth: "102% (inactive)"
- Compound: "CCOC(=O)CNC(=O)C1(NC(=O)CNC(=O)OCc2ccccc2)CCCC1"
  growth: "104% (inactive)"
- Compound: "N#CC1c2ccccc2C=CN1C(=O)N(c1ccccc1)c1ccccc1 (stereo not given)"
  growth: "110% (inactive)"
- Compound: "COc1ccc(N2CCN(CC(=O)N3CCN(c4nnc(-c5ccccc5)c(-c5ccccc5)n4)CC3)CC2)cc1"
  growth: "80.7% (inactive)"
- Compound: "CC(=O)N1N=C(c2ccc(Nc3nc(NCCO)nc(NCCO)n3)cc2)CC1c1ccc(Cl)cc1 (stereo not given)"
  growth: "101% (inactive)"
- Compound: "[N-]=[N+]=NCc1ncc(-c2ccc(C(F)(F)F)cc2)c(NC2CCCCCC2)n1"
  growth: "90.1% [50 µM] (inactive)"
- Compound: "Cc1nn(-c2ccccc2)cc1/C=C1\\SC(N2CCCCC2)=NC1=O"
  growth: "119% (inactive)"
- Compound: "Cc1ccc(N/N=C(/C(=O)c2ccc(Cl)cc2)c2nc(C)cc(=O)[nH]2)cc1"
  growth: "116% (inactive)"

Source of measurements: PubChem BioAssay (NCI)
